Molecular target: PKM2 N70D (Homo sapiens, UniProt P14618, N70D)
Sequence (P14618 whole entry N70D): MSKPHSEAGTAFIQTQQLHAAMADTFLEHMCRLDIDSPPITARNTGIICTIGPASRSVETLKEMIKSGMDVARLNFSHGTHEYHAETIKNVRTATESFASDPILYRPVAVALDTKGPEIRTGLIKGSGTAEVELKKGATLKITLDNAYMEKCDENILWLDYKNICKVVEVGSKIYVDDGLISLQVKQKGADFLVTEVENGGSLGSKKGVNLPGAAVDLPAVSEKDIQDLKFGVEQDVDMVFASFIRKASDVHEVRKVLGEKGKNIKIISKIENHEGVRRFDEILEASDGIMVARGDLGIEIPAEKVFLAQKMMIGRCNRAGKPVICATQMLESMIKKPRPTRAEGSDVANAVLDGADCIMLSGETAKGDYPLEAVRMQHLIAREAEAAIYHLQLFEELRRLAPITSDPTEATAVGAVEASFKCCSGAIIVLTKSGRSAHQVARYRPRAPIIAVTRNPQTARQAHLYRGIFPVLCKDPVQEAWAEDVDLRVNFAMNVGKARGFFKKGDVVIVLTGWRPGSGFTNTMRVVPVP
Assay: PKM2-LDH coupled pyruvate kinase activity assay
Details: 65 nM PKM2 N70D in presence of 2 mM of the labelled AA; PEP 0.025–8 mM, ADP 0.8 mM
Measurement name: kcat

Known kcat results, listed for orientation:
Specify kcat for N[C@@H](CC(=O)O)C(=O)O [Asp, aspartate] , system PKM2 N70D (Homo sapiens, UniProt P14618, N70D).
4.7±0.1 ×10^3 min^-1

Give kcat; test system PKM2 N70D (Homo sapiens, UniProt P14618, N70D); molecule `N[C@@H](CS)C(=O)O`
5.1±0.2 ×10^3 min^-1

Fill in: kcat on PKM2 N70D (Homo sapiens, UniProt P14618, N70D), entry `NC(=O)C[C@H](N)C(=O)O`
5.2±0.3 ×10^3 min^-1

We next turn to a different molecule, shown below.
Answer with kcat of `CC(C)[C@H](N)C(=O)O` measured for PKM2 N70D (Homo sapiens, UniProt P14618, N70D).
4.9±0.6 ×10^3 min^-1
